- testMethodNotes: PDE10a-perfused brain permeability study (plasma and brain concentrations)
- assayConditions: male, Sprague-Dawley, rat, plasma
Counter-ions that a name gives are not always drawn.
experimentalEndpoint: concentration at 2 h (ng/mL)

a: Nc1ccc(-c2cnc(N3CCOCC3)c3nc(COc4ccc5ccccc5n4)cn23)cn1 [Cpd 122]
b: O=C(O)c1ccc(-c2cnc(N3CCOCC3)c3nc(/C=C/c4ccc5ccccc5n4)cn23)cc1 [Cpd 16, trifluoroacetic acid salt]
-- ask Compare the recorded concentration at 2 h of a and b ; state which is larger. Reply briefly: the label of your chosen item.
-- reply b

====

- targetUnderTest: Rat recombinant PDE10a (rPDE10a) (Rattus norvegicus (Rat))
- Sequence (Q9QYJ6 whole entry): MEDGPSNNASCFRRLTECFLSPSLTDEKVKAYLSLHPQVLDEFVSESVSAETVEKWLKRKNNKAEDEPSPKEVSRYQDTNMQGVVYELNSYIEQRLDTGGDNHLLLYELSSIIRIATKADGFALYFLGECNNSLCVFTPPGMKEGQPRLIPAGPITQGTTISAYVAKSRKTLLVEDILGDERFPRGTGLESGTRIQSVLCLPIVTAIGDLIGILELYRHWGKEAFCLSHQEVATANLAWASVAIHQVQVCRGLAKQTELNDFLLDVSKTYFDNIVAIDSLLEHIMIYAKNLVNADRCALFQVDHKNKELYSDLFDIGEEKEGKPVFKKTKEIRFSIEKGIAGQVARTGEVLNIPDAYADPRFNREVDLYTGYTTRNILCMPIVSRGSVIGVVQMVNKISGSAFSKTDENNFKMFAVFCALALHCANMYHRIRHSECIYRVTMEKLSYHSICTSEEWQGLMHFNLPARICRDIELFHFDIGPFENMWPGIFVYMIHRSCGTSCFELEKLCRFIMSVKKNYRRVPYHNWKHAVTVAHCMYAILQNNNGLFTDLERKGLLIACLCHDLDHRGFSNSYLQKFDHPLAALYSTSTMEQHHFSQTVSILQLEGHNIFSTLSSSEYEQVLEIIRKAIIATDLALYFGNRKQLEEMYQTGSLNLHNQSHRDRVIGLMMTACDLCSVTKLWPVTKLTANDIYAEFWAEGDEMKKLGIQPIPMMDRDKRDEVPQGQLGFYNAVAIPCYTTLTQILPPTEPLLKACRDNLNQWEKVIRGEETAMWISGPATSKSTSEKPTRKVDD
- testMethodNotes: In vitro assay PDE10a (rat recombinant PDE10a, SPA)
- assayConditions: 60 nM cAMP, 60 min at rt, read-out: rPDE10a2 IC50
Where a name gives a salt, the structure may show the parent alone.
experimentalEndpoint: IC50 (nM)

compound	targetUnderTest	resultUnits	value
CC(=O)NS(=O)(=O)c1ccc(-c2cnc(N3CCOCC3)c3nc(/C=C/c4ccc5ccccc5n4)cn23)cc1 [Cpd 69, trifluoroacetic acid salt]	Rat recombinant PDE10a (rPDE10a) (Rattus norvegicus (Rat))	nM	4

P: CS(=O)(=O)Nc1ccc(-c2cnc(N3CCOCC3)c3nc(COc4ccc5ccccc5n4)cn23)cn1
Q: CN1C(=O)Nc2ccc(-c3cnc(N4CCOCC4)c4nc(/C=C/c5ccc6ccccc6n5)cn34)cc2S1(=O)=O
R: CS(=O)(=O)NC(=O)c1cncc(-c2cnc(N3CCOCC3)c3nc(/C=C/c4ccc5ccccc5n4)cn23)c1
-- ask // sort entries: IC50, high to low Your reply should list the labels following the order given in the request.
-- reply Q, R, P
